Property: pIC50; scope: individual molecules
- System: Staphylococcus aureus
- Assay remarks: Antibacterial activity against Staphylococcus aureus assessed as bacterial growth inhibition incubated for 72 hrs by microdilution assay
- Format: functional, organism-based
In textbook form, pIC50 equals minus log to base ten of the concentration in mol/L.

[
  {
    "Structure smiles string": "CCCCCCCCCCCCOC(=O)C[N+](C)(C)CCC[N+](C)(C)CC(=O)OCCCCCCCCCCCC.[Br-].[Br-]",
    "Observed result": 4.70
  }
]

Shift focus to the following entry.
Staphylococcus aureus / pIC50 / CCCCCCCCCCCCOC(=O)C[N+](C)(C)CCC[N+](C)(C)CC(=O)OCCCCCCCCCCCC.[Cl-].[Cl-] : value?
3.92
